For each entry below, report its normalised response value.
system: Hs578T; assay: normalised response (% of control), CellTiter-Glo; higher = more viable cells (100 = DMSO, 0 = benzethonium chloride kill control); settings: incubation time: 72 h
Answers are plain numbers, in %.

Example entries begin here.
>  <Molecule>
CC[C@H](Nc1ncnc2[nH]cnc12)c1nc2cccc(F)c2c(=O)n1-c1ccccc1 [GS-1101] (1 nM)

>  <Tested target>
Hs578T

>  <normalised response / %>
96.8

$$$$
>  <Molecule>
C[C@H]1C[C@@H]2[C@H]([C@@H](O)C[C@@]3(C)[C@H]2CC[C@]3(O)C(=O)CO)[C@@]2(C)C=CC(=O)C=C12 [Methylprednisolone] (10 nM)

>  <Tested target>
Hs578T

>  <normalised response / %>
103

$$$$
>  <Molecule>
CC[C@H](Nc1ncnc2[nH]cnc12)c1nc2cccc(F)c2c(=O)n1-c1ccccc1 [GS-1101] (10 nM)

>  <Tested target>
Hs578T

>  <normalised response / %>
97.4

$$$$
>  <Molecule>
CNC(=O)c1cc(Oc2ccc(NC(=O)Nc3cc(C(C)(C)C)nn3-c3ccc4ncccc4c3)c(F)c2)ccn1 [Rebastinib] (0.1 nM)

>  <Tested target>
Hs578T

>  <normalised response / %>
103

$$$$
>  <Molecule>
Nc1nc(F)nc2c1ncn2[C@@H]1O[C@H](CO)[C@@H](O)[C@@H]1O [Fludarabine] (1000 nM)

>  <Tested target>
Hs578T

>  <normalised response / %>
102

$$$$

Provide reported normalised response for each item, in the same order as listed.
1. CCCCC(=O)OCC(=O)[C@]1(O)Cc2c(O)c3c(c(O)c2[C@@H](O[C@H]2C[C@H](NC(=O)C(F)(F)F)[C@H](O)[C@H](C)O2)C1)C(=O)c1c(OC)cccc1C3=O [Valrubicin] (5 nM)
2. Oc1ncc(N(CCCl)CCCl)c(O)n1 [Uracil mustard] (1000 nM)
3. CC[C@H](C)C(=O)O[C@H]1C[C@H](O)C=C2C=C[C@H](C)[C@H](CC[C@@H](O)C[C@@H](O)CC(=O)O)[C@H]21 [Pravastatin] (10 nM)
4. Nc1nc(F)nc2c1ncn2[C@@H]1O[C@H](CO)[C@@H](O)[C@@H]1O [Fludarabine] (10 nM)
5. CNC(=O)c1cc(Oc2ccc(NC(=O)Nc3cc(C(C)(C)C)nn3-c3ccc4ncccc4c3)c(F)c2)ccn1 [Rebastinib] (100 nM)
6. COc1cc2c(Oc3ccc4[nH]c(C)cc4c3F)ncnc2cc1OCCCN1CCCC1 [Cediranib] (1 nM)

Response:
[102, 99, 100, 105, 114, 97]

Provide reported normalised response for each item, in the same order as listed.
1. COc1cc2nccc(Oc3ccc(NC(=O)Nc4cc(C)on4)c(Cl)c3)c2cc1OC [Tivozanib] (10 nM)
2. CC[C@@H]1C(=O)N(C)c2cnc(Nc3ccc(C(=O)NC4CCN(C)CC4)cc3OC)nc2N1C1CCCC1 [BI 2536] (1 nM)
3. C=CC(=O)Nc1cc2c(Nc3ccc(F)c(Cl)c3)ncnc2cc1OCCCN1CCOCC1 [Canertinib] (1000 nM)

Response:
1: 94.3; 2: 96.7; 3: 104

* * *

For each entry below, report its normalised response value.
tested on: HCC1937; experiment: normalised response (% of control), CellTiter-Glo; higher = more viable cells (100 = DMSO, 0 = benzethonium chloride kill control); settings: incubation time: 72 h
Give bare numbers, in %.

Example entries begin here.
>  <Compound>
C[C@H]1C[C@@H]2[C@H]([C@@H](O)C[C@@]3(C)[C@H]2CC[C@]3(O)C(=O)CO)[C@@]2(C)C=CC(=O)C=C12 [Methylprednisolone] (10000 nM)

>  <normalised response (%)>
97.5

$$$$
>  <Compound>
COc1cc2nccc(Oc3ccc(NC(=O)Nc4cc(C)on4)c(Cl)c3)c2cc1OC [Tivozanib] (10000 nM)

>  <normalised response (%)>
61.6

$$$$

Attention now turns to another entry.
Request: Looking for the measured normalised response of O=C(O)C1(C(=O)O)CCC1.[NH2-].[NH2-].[Pt+2] [Carboplatin] (10000 nM) , can you help?
Response: 89.2

* * *

test system: HCC1599; assay: normalised response (% of control), CellTiter-Glo; higher = more viable cells (100 = DMSO, 0 = benzethonium chloride kill control); conditions: incubation time: 72 h
Give Y when the value for normalised response is at least 70%. Give N when it is less.

>  <Molecule>
Cc1ccc(-c2cc(C(F)(F)F)nn2-c2ccc(S(N)(=O)=O)cc2)cc1 [Celecoxib] (10000 nM)

>  <Classification>
Y

$$$$
>  <Molecule>
Nc1ncn([C@H]2C[C@H](O)[C@@H](CO)O2)c(=O)n1 [Decitabine] (10000 nM)

>  <Classification>
Y

$$$$
>  <Molecule>
CC1=C(/C=C/C(C)=C/C=C/C(C)=C/C(=O)O)C(C)(C)CCC1 [Tretinoin] (10000 nM)

>  <Classification>
N

$$$$

Request: Hi team, for O=C(O)CCCCC(CCSCc1ccccc1)SCc1ccccc1 (centres undefined) [CPI-613] (10000 nM) , is the recorded normalised response at or above 70%?
Response: Y

Request: Hi team, for CCc1cncnc1N1CCN(Cc2nc3ccc(C(F)(F)F)cc3[nH]2)CC1 (10000 nM) , is the recorded normalised response at or above 70%?
Response: Y

Request: Hi team, for N#Cc1ccc(C(c2ccc(C#N)cc2)n2cncn2)cc1 [Letrozole] (10000 nM) , is the recorded normalised response at or above 70%?
Response: Y

* * *

system: CAL-85-1; conditions: 72 h
For each entry below, report its EC50, CellTiter-Blue viability value.
Answers are plain numbers, in µM.

Example entries begin here.
>  <Molecule>
CC[C@@H]1C(=O)N(C)c2cnc(Nc3ccc(C(=O)NC4CCN(C)CC4)cc3OC)nc2N1C1CCCC1

>  <Unit abbrev>
µM

>  <EC50, CellTiter-Blue viability>
0.00285

$$$$
>  <Molecule>
CC(=O)Nc1cccc(-n2c(=O)n(C3CC3)c(=O)c3c(Nc4ccc(I)cc4F)n(C)c(=O)c(C)c32)c1

>  <Unit abbrev>
µM

>  <EC50, CellTiter-Blue viability>
0.0194

$$$$
>  <Molecule>
O=C(Cc1ccc(-c2ccc(OCCN3CCOCC3)cc2)cn1)NCc1ccccc1

>  <Unit abbrev>
µM

>  <EC50, CellTiter-Blue viability>
0.0231

$$$$
>  <Molecule>
COc1cc([C@@H]2c3cc4c(cc3[C@@H](O[C@@H]3O[C@@H]5CO[C@@H](c6cccs6)O[C@H]5[C@H](O)[C@H]3O)[C@H]3COC(=O)[C@H]23)OCO4)cc(OC)c1O [Teniposide]

>  <Unit abbrev>
µM

>  <EC50, CellTiter-Blue viability>
1.45

$$$$
>  <Molecule>
Nc1ccccc1NC(=O)c1ccc(CNC(=O)OCc2cccnc2)cc1

>  <Unit abbrev>
µM

>  <EC50, CellTiter-Blue viability>
2.7

$$$$
>  <Molecule>
C=CC(=O)N1CCC[C@@H](n2nc(-c3ccc(Oc4ccccc4)cc3)c3c(N)ncnc32)C1

>  <Unit abbrev>
µM

>  <EC50, CellTiter-Blue viability>
0.849

$$$$

Attention now turns to another entry.
Request: Looking for the measured EC50, CellTiter-Blue viability of CCCCC(=O)OCC(=O)[C@]1(O)Cc2c(O)c3c(c(O)c2[C@@H](O[C@H]2C[C@H](NC(=O)C(F)(F)F)[C@H](O)[C@H](C)O2)C1)C(=O)c1c(OC)cccc1C3=O , can you help?
Response: 1.17

* * *

system: BT-549; assay: normalised viability (% of control), CellTiter-Blue; higher = more viable cells (about 100 = DMSO control); conditions: 10000 nM; incubation time: 72 h
Assay endpoint: normalised viability (%)
Answers are plain numbers, in %.

Example entries begin here.
>  <Molecule>
N#Cc1ccc(C(c2ccc(C#N)cc2)n2cncn2)cc1 [Letrozole]

>  <Obs value>
90.5

$$$$
>  <Molecule>
C=CC(=O)Nc1cc2c(Nc3ccc(F)c(Cl)c3)ncnc2cc1OCCCN1CCOCC1 [Canertinib]

>  <Obs value>
2.56

$$$$
>  <Molecule>
COc1cc([C@@H]2c3cc4c(cc3[C@@H](O[C@@H]3O[C@@H]5CO[C@@H](c6cccs6)O[C@H]5[C@H](O)[C@H]3O)[C@H]3COC(=O)[C@H]23)OCO4)cc(OC)c1O [Teniposide]

>  <Obs value>
8.99

$$$$
>  <Molecule>
O=C(O)C1(C(=O)O)CCC1.[NH2-].[NH2-].[Pt+2] [Carboplatin]

>  <Obs value>
87.7

$$$$
>  <Molecule>
O=C(O)C(=O)O.[NH-][C@@H]1CCCC[C@H]1[NH-].[Pt+2] [Oxaliplatin]

>  <Obs value>
52.6

$$$$
>  <Molecule>
Cc1ccc(-c2cc(C(F)(F)F)nn2-c2ccc(S(N)(=O)=O)cc2)cc1 [Celecoxib]

>  <Obs value>
78.4

$$$$

Attention now turns to another entry.
Request: Looking for the measured normalised viability of Oc1ncc(N(CCCl)CCCl)c(O)n1 [Uracil mustard] , can you help?
Response: 90.6
